Data provenance: ChEMBL document CHEMBL1143946

A set of compounds tested on UniProtKB P08172, with measured pKi:
Answers are plain numbers, as −log10 of the molar value.

A selection of reference data follows.
- compound: "CO/N=C(\\C#N)[C@H]1CN2CCC1CC2"
  pKi: 6.69
- compound: "C[C@@H]1O[C@H]([C@@H]2CCC[N+]2(C)C)C[S+]1[O-] (stereo in doubt; 12)"
  pKi: 4.09
- compound: "C[C@@H]1O[C@H]([C@@H]2CCC[N+]2(C)C)C[S+]1[O-] (stereo in doubt; 9)"
  pKi: 5.03
- compound: "C[C@H]1O[C@@H]([C@H]2CCC[N+]2(C)C)CS1"
  pKi: 5.85
- compound: "C[C@@H]1O[C@H](C[N+](C)(C)C)CS1"
  pKi: 5.68
- compound: "C[C@H]1OC[C@@H]([C@@H]2CCC[N+]2(C)C)O1"
  pKi: 5.77
- compound: "C[C@@H]1O[C@H]([C@@H]2CCC[N+]2(C)C)CS1"
  pKi: 5.45
- compound: "C[C@H]1OC[C@@H]([C@H]2CCC[N+]2(C)C)O1"
  pKi: 5.30

Would you be so kind as to report pKi for each listed record?
1. C[C@@H]1O[C@H]([C@@H]2CCC[N+]2(C)C)C[S+]1[O-] (stereo in doubt; 11)
2. C[N+](C)(C)CC#CCN1CCCC1=O [OXOTREMORINE METHIODIDE]
3. C[C@H]1O[C@@H]([C@@H]2CCC[N+]2(C)C)C[S+]1[O-] (stereo partly drawn)

Reply text:
4.81
6.97
4.11
